Would you mind telling me the reported pKd of each entry?
Molecular target: MS2 coat protein, dlFG mutant (Escherichia phage MS2, UniProt P03612, del68-81insG)
Experiment: 4 mM Mg2+; no ligand; RNA-MaP array; 100 mM Tris-HCl pH 7.5, 80 mM KCl, 4 mM MgCl2, 0.1 mg/mL BSA, 1 mM DTT, 0.01 mg/mL yeast tRNA, 0.01% Tween-20; protein 1.5 nM to 3 uM; 37 C (Table S3)
Conditions: chain copies: 2; label: tethered by stalled RNA polymerase
Give bare numbers, as −log10 of the molar value.

Field: example entries. Status: answers known.
{"BINDER": "Eterna 6439566 (Inverted Small Loop Same State NG 1) (ssRNA) RNA: GGACAUUUACAGAAGGGCAAGCUCGAAAGCGGAGAACGCGAACGAGCUUGCAGGAUAUGUUGAACAUGAGGAUCACCCAUGUCU", "pKd": 8.09}
{"BINDER": "Eterna 6095051 (Same State NG 3) (ssRNA) RNA: UUAACAUGAGGAUCACCCAUGUAAAGAACGGUUAAUUAAAGUGAGGAUAUACAAAAUUUUAUAUUGUAGAAGGCACUGGGUACA", "pKd": 7.71}
{"BINDER": "Eterna 6073973 (Exclusion 2) (ssRNA) RNA: UAGAUGGGAGGAUAUACGUAUAUGCAGGUUCGUGUGGUGCUACAUGAGGAUCACCCAUGUAGAAGGCCCGUCUU", "pKd": 7.72}
{"BINDER": "Eterna 5789023 (Sensor v3, turn-off variant 2) (ssRNA) RNA: ACAAGCUUUUUGUUCGUCUUAUAAAAUCCUAAGAGGAAAACAUGAGGAUCACCCAUGUAACAAAGACGGACUCAUGU", "pKd": 7.88}
{"BINDER": "Eterna 6120937 (Same State NG 1) (ssRNA) RNA: GCCAUCACAUGAGGAUAUGGCACCGUUUCGGUGCCAGAAGGCAUGUCAUAAGACAUGAGGAUCACCCAUGUAGUUAAGAUGGCA", "pKd": 6.04}
{"BINDER": "Eterna 7730095 (Same State - Theophylline B) (ssRNA) RNA: UGUAUGUGAUCUGAUACCAGUCCAACUGGUAAACCAUGAGGAUCACCCAUGGAAAAUUGGGACCCUUGGCAGCAGAUCGCAUACU", "pKd": 6.51}

Memo: Eterna 7653871 (Same State - Theophylline B) (ssRNA) RNA: UGUAUGUGAUUUGAUACCAGACCAGCUGGUGGUGCAUGAGGAACACCCAUGCAGGUUUGGGUCCCUUGGCAGCAAAUCGCAUACU , reported pKd: 6.84

Data credit: paper PMC9170038
